Target: UniProt:Q8IXJ6
Sequence (Q8IXJ6 whole entry): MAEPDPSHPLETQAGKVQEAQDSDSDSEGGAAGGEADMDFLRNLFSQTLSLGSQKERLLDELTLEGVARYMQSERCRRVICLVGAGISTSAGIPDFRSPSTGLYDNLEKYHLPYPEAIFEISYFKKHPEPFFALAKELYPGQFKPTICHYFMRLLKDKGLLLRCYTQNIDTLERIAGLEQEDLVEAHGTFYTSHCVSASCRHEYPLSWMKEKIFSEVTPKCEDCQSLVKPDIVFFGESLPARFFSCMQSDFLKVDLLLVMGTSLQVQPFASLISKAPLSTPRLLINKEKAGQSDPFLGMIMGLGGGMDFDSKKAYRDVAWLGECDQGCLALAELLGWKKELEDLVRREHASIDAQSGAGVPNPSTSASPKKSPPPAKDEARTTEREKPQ
Assay: Inhibition of recombinant SIRT2 (unknown origin) using FAM-labeled RHKK(Ac) LM peptide as substrate incubated for 60 mins by electrophoretic mobility shift assay
pIC50: −log10 of the molar value.
Observed Property: pIC50

Item `CCN(CC)c1ccnc(CNCCSC(c2ccccc2)(c2ccccc2)c2ccccc2)c1` has what recorded pIC50?
5.12

Now the compound `CN(C)c1cccc(CNCCSC(c2ccccc2)(c2ccccc2)c2ccccc2)c1`
< 4.00

Now the compound `CN(C)c1ccnc(CNCCSC(C)(C)C)c1`
< 4.00
